Provide the recorded melting point for the entries that follow.

[ask] Note down melting point recorded for COc1ccc(S(=O)(=O)c2ccc3c(c2)nc(C(C)(C)C)n3CC2CCOCC2)nn1
[reply] 174 to 180 °C

[ask] Note down melting point recorded for CC(C)(C)c1nc2cc(S(=O)(=O)c3ccnc(O)c3)ccc2n1CC1CCOCC1
[reply] > 300 °C

[ask] Note down melting point recorded for Cc1nc(-c2csc(S(=O)(=O)c3ccc4c(c3)nc(C(C)(C)C)n4CC3CCOCC3)c2)no1
[reply] 192 to 193 °C

---

# target-entity: human CB2 (hCB2) receptor (Homo sapiens)
# Construct: expressed in transfected cells; host or cells: CHO-K1
# Sequence (P34972 whole entry): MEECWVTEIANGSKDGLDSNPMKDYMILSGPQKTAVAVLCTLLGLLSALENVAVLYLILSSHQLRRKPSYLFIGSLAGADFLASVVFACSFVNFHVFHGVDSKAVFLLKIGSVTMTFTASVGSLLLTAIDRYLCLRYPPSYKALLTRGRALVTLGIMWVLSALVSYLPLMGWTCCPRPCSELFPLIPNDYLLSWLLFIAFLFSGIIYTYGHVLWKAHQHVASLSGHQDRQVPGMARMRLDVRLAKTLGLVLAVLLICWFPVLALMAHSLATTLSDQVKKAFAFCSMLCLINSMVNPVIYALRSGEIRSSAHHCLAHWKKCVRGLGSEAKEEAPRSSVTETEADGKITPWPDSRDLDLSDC
# procedure-details: Inhibition of forskolin-activated cAMP production upon activation of hCB2 (HTRF), CHO-K1 cells
# Assay type: cell-based
# experimental-conditions: hCB2-CHO-K1 cells, forskolin-activated cAMP, pEC50=-log(EC50); read-out: CB2 pEC50 (converted)
Strictly below 2 nM in EC50: YES. Otherwise: NO.

[ask] Is it true that EC50 reported for COC(C)c1ccc(S(=O)(=O)c2ccc3c(c2)nc(C(C)(C)C)n3CC2CCOCC2)nc1 (stereo not shown) [Co. No. 49] is less than 2 nM?
[reply] NO

[ask] Is it true that EC50 reported for CC(C)(C)c1nc2cc(S(=O)(=O)c3coc(C(F)(F)F)c3)ccc2n1CC1CCOCC1 [Co. No. 106] is less than 2 nM?
[reply] YES

[ask] Is it true that EC50 reported for CC(C)(C)c1nc2cc(S(=O)(=O)c3ccc(C(=O)N4CCCC4)cn3)ccc2n1CC1CCCCC1 [Co. No. 38] is less than 2 nM?
[reply] NO

[ask] Is it true that EC50 reported for CC(C)(C)c1nc2cc(S(=O)(=O)c3cccc(C(F)(F)F)n3)ccc2n1CC1CCOCC1 [Co. No. 110] is less than 2 nM?
[reply] YES

[ask] Is it true that EC50 reported for Cc1[nH][n+]([O-])cc1[S+]([O-])c1ccc2c(c1)nc(C(C)(C)C)n2CC1CCOCC1 (stereo not shown) [Co. No. 137] is less than 2 nM?
[reply] YES

[ask] Is it true that EC50 reported for CC(C)(C)c1nc2cc(S(=O)(=O)c3ccc(O)nc3)ccc2n1CC1CCCCC1 [Co. No. 39] is less than 2 nM?
[reply] YES

[ask] Is it true that EC50 reported for CC(C)(C)CCn1c(C(C)(C)C)nc2cc(S(=O)(=O)c3ccnc(F)c3)ccc21 [Co. No. 120] is less than 2 nM?
[reply] NO

[ask] Is it true that EC50 reported for Cc1noc(C)c1S(=O)(=O)c1ccc2c(c1)nc(C(C)(C)C)n2CC1CCOCC1 [Co. No. 15] is less than 2 nM?
[reply] YES

[ask] Is it true that EC50 reported for CC(C)(C)c1nc2cc(S(=O)(=O)c3ccnc(F)c3)ccc2n1CC1CCN(C=O)CC1 [Co. No. 112] is less than 2 nM?
[reply] NO

[ask] Is it true that EC50 reported for CC(C)(C)c1nc2cc(S(=O)(=O)c3ccnc(OC(F)F)c3)ccc2n1CC1CCOCC1 [Co. No. 14] is less than 2 nM?
[reply] YES

[ask] Is it true that EC50 reported for CC(=O)NCCOc1cc(S(=O)(=O)c2ccc3c(c2)nc(C(C)(C)C)n3CC2CCOCC2)ccn1 [Co. No. 121] is less than 2 nM?
[reply] NO

[ask] Is it true that EC50 reported for COCCNC(=O)c1ccc(S(=O)(=O)c2ccc3c(c2)nc(C(C)(C)C)n3CC2CCCCC2)nc1 [Co. No. 37] is less than 2 nM?
[reply] YES

[ask] Is it true that EC50 reported for CC1(C)CC(Cn2c(C(C)(C)C)nc3cc(S(=O)(=O)c4ccnc(F)c4)ccc32)CCO1 (stereo not shown) [Co. No. 149] is less than 2 nM?
[reply] YES

[ask] Is it true that EC50 reported for CC(C)(C)c1nc2cc(S(=O)(=O)c3ccc(C#N)nc3)ccc2n1CC1CCOCC1 [Co. No. 51] is less than 2 nM?
[reply] YES

[ask] Is it true that EC50 reported for CCOc1cc(S(=O)(=O)c2ccc3c(c2)nc(C(C)(C)C)n3CC2CCOCC2)ccn1 [Co. No. 9] is less than 2 nM?
[reply] YES

[ask] Is it true that EC50 reported for CC(=O)c1ccc(S(=O)(=O)c2ccc3c(c2)nc(C(C)(C)C)n3CC2CCOCC2)nc1 [Co. No. 4] is less than 2 nM?
[reply] YES

[ask] Is it true that EC50 reported for CC(O)c1ccc(S(=O)(=O)c2ccc3c(c2)nc(C(C)(C)C)n3CC2CCOCC2)nc1 (stereo not shown) [Co. No. 42] is less than 2 nM?
[reply] NO

[ask] Is it true that EC50 reported for CC(=O)NCCCCc1cc(S(=O)(=O)c2ccc3c(c2)nc(C(C)(C)C)n3CC2CCOCC2)ccn1 [Co. No. 141] is less than 2 nM?
[reply] NO

[ask] Is it true that EC50 reported for Cc1cc(S(=O)(=O)c2ccc3c(c2)nc(CC(C)(C)C)n3CC2CCOCC2)ccn1 [Co. No. 24] is less than 2 nM?
[reply] NO

[ask] Is it true that EC50 reported for CC(C)(C)c1nc2cc([S+]([O-])c3c(Cl)cncc3Cl)ccc2n1CC1CCOCC1 (stereo not shown) [Co. No. 85] is less than 2 nM?
[reply] YES

[ask] Is it true that EC50 reported for Cc1cc(S(=O)(=O)c2ccc3c(c2)nc(C(C)(C)C)n3CC2CCOCC2)cc[n+]1[O-] [Co. No. 89] is less than 2 nM?
[reply] NO

[ask] Is it true that EC50 reported for CC(C)(C)c1nc2cc(S(=O)(=O)c3ccnc(OCCCN4CCOCC4)c3)ccc2n1CC1CCOCC1 [Co. No. 135] is less than 2 nM?
[reply] NO

[ask] Is it true that EC50 reported for CC(C)(C)c1nc2cc(S(=O)(=O)c3ccnc(F)c3)ccc2n1CC1CCC1 [Co. No. 136] is less than 2 nM?
[reply] YES

[ask] Is it true that EC50 reported for COCCCNc1cc(S(=O)(=O)c2ccc3c(c2)nc(C(C)(C)C)n3CC2CCOCC2)ccn1 [Co. No. 126] is less than 2 nM?
[reply] YES
